Experiment: Pharmacokinetics of dihydroartemisinin (DHA), active metabolite, in plasma after multiple intravenous AS doses, non-compartmental analysis
Type: in vivo, human
Settings: human, plasma, iv, 4 mg/kg, Day 1; DHA after AS 4 mg/kg iv daily for 3 days, 2 min infusion; mean (CV%), n = 6; NCA; read-out: t1/2 elimination (converted)
Description: The study was a double blind, ascending multiple doses, alternating group, safety, tolerance, and PK study. […] When the injection was completed, the study nurse recorded tolerance of injection to include both inspection of site and subjects’ responses. […] The analytes were extracted from human plasma with ethyl acetate. […] The reconstituted extracts were analysed on a Micromass Quattro II Mass Spectrometer in the positive ion electrospray ionization (+ESI) mode. […]
VALUE TYPE: half-life (h)

{"columns": ["MOLECULE", "MEASURED"],
 "data": [
  ["C[C@H]1[C@@H](O)O[C@@H]2O[C@@]3(C)CC[C@H]4[C@H](C)CC[C@@H]1[C@@]24OO3 [DHA, dihydroartemisinin]", 1.74]
]}
